Molecular target: UniProt P00746
Assay: Human Factor D Assay
Format: biochemical
Details: Table 6; Factor D 80 nM, substrate Z-L-Lys-SBz; read-out: IC50
Procedure: The assay of Example 10 was used to determine the IC50's of the compounds. Other standard factor D inhibition assays are also available. Human Factor D (purified from human serum, Complement Technology, Inc.) at 80 nM final concentration is incubated with test compound at various concentrations for 5 min at room temperature in 50 mM Tris, 1M NaCl, pH 7.5. […] Absorbance at 405 nm (A405) is recorded at 30 second intervals for 30 min using a microplate spectrophotometer. […]
readout.type: IC50

molecule	target.desc	IC50
CC(=O)c1nn(CC(=O)N2[C@H](C(=O)Nc3nc(Br)ccc3C)C[C@@]3(CNC4CC4)C[C@@H]23)c2ccc(-c3cnc(C)nc3)cc12	UniProt P00746	< 1000 nM
CC(=O)c1nn(CC(=O)N2[C@H](C(=O)Nc3nc(Br)ccc3C)C[C@@]3(C)C[C@@H]23)c2c(C)nc(-c3cnc(C)nc3)cc12	UniProt P00746	< 1000 nM
CC(=O)c1nn(CC(=O)N2[C@H](C(=O)Nc3nc(Br)ccc3CN3CC4(COC4)C3)C[C@@]3(C)C[C@@H]23)c2ccc(-c3cnc(C)nc3)cc12	UniProt P00746	< 1000 nM
Cc1ncc(-c2cc(C(N)=O)nn2CC(=O)N2C[C@H](F)C[C@H]2C(=O)Nc2cccc(Br)n2)cn1	UniProt P00746	> 10000 nM
CC(=O)c1nn(CC(=O)N2C[C@@H](C(F)(F)F)C[C@H]2C(=O)Nc2nc(Br)ccc2C)c2c(C)cc(-c3cnc(C)nc3)cc12	UniProt P00746	< 1000 nM

Incoming: I would be grateful if you could share the reported IC50 for COCc1ccc(Br)nc1NC(=O)[C@@H]1C[C@@]2(COC)C[C@H]2N1C(=O)Cn1nc(C(C)=O)c2cc(-c3cnc(C)nc3)ccc21 .
Outgoing: < 1000 nM

Incoming: // returns reported IC50 for input CC(=O)NC[C@@]12C[C@@H](C(=O)Nc3nc(Br)ccc3C)N(C(=O)Cn3nc(C(C)=O)c4cc(-c5cnc(C)nc5)cc(C)c43)[C@@H]1C2
Outgoing: < 1000 nM

Incoming: Give the measured IC50 of CC(=O)c1nn(CC(=O)N2[C@H]3C[C@@]3(C)C[C@H]2C(=O)Nc2nc(Br)ccc2C)c2c(C3CC3)cc(-c3cnc(C)nc3)cc12 .
Outgoing: < 1000 nM

---

Listed here: items and their measured pIC50.
Molecular target: Human Factor D (Homo sapiens (Human), UniProt P00746)
Sequence (P00746 26-253): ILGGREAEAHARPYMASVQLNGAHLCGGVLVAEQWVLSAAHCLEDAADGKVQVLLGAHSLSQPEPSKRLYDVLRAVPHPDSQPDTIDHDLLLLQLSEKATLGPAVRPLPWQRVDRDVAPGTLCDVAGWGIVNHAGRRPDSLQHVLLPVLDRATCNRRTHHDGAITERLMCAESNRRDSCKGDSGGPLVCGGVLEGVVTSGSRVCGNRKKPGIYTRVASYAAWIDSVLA
Assay: Human Factor D Assay
Format: biochemical
Settings: Table 8; Factor D 80 nM, substrate Z-L-Lys-SBz; read-out: IC50
pIC50: −log10 of the molar value.

Consider the reported pIC50 for these compounds:
compound	pIC50
CCCCCNC(=O)c1nn(CC(=O)N2[C@H](C(=O)Nc3nc(Br)ccc3C)C[C@@]3(C)C[C@@H]23)c2ccc(-c3cnc(C)nc3)cc12 [Compound 477]	< 5.00
CC(=O)c1nn(CC(=O)N2[C@H](C(=O)Nc3nc(Br)ccc3C)C[C@@]3(CNC(=O)COCCOCCNC(=O)COCCOCCNC(=O)CC[C@H](NC(=O)CCCCCCCCCCCCCCCCC(=O)O)C(=O)O)C[C@@H]23)c2cnc(-c3cnc(C)nc3)cc12 [Compound 442]	> 6.00
CC(=O)c1nn(CC(=O)N2[C@H](C(=O)Nc3nc(Br)ccc3C)C[C@@]3(C)C[C@@H]23)c2c(C)cc(-c3cnc(CNC(=O)COCCOCCNC(=O)COCCOCCNC(=O)CC[C@H](NC(=O)CCCCCCCCCCCCCCCCC(=O)O)C(=O)O)nc3)cc12 [Compound 404]	> 6.00
Cc1ncc(-c2ccc3c(c2)c(C(=O)NCC2CCC2)nn3CC(=O)N2[C@H](C(=O)Nc3nc(Br)ccc3C)C[C@@]3(C)C[C@@H]23)cn1 [Compound 479]	5.00 to 6.00
Cc1ncc(-c2ccc3c(c2)c(C(=O)NCC(F)(F)F)nn3CC(=O)N2[C@H](C(=O)Nc3nc(Br)ccc3C)C[C@@]3(C)C[C@@H]23)cn1 [Compound 499]	> 6.00

Kindly consider the entry below.
Incoming: Provide value of pIC50 for this record tested with Human Factor D (Homo sapiens (Human), UniProt P00746): CC(=O)c1nn(CC(=O)N2[C@H](C(=O)NCCCCc3ccccc3)C[C@@]3(C)C[C@@H]23)c2c(C)cc(-c3cnc(C)nc3)cc12 [Compound 538]
Outgoing: > 6.00

---

IC50: recorded values
Molecular target: Human Factor D (Homo sapiens (Human))
Assay: Human Factor D Assay
Assay type: biochemical
Conditions: Table 8; Factor D 80 nM, substrate Z-L-Lys-SBz; read-out: IC50

Would you please look over these solved cases?
Cc1ncc(-c2ccc3c(c2)c(C(=O)NCCN(C)C)nn3CC(=O)N2[C@H](C(=O)Nc3nc(Br)ccc3C)C[C@@]3(C)C[C@@H]23)cn1 > 10000 nM
COC(=O)CCCCCCCCCCCCCCCCC(=O)N[C@@H](CCC(=O)NCCOCCOCC(=O)NCCOCCOCC(=O)NC[C@@]12C[C@@H](C(=O)Nc3nc(Br)ccc3C)N(C(=O)Cn3nc(C(C)=O)c4cc(-c5cnc(C)nc5)ncc43)[C@@H]1C2)C(=O)OC < 1000 nM
Cc1ncc(-c2ccc3c(c2)c(C(=O)NCC2CC2)nn3CC(=O)N2[C@H](C(=O)Nc3nc(Br)ccc3C)C[C@@]3(C)C[C@@H]23)cn1 < 1000 nM
CC(=O)c1nn(CC(=O)N2[C@H](C(=O)Nc3nc(Br)ccc3C)C[C@@]3(CNC(=O)COCCOCCNC(=O)COCCOCCNC(=O)CC[C@H](NC(=O)CCCCCCCCCCCCCCCCC(=O)O)C(=O)O)C[C@@H]23)c2c(C)cc(-c3cnc(C)nc3)cc12 < 1000 nM
COC(=O)CCCCCCCCCCCCCCCCC(=O)N[C@@H](CCC(=O)NCCOCCOCC(=O)NCCOCCOCC(=O)NCc1ncc(-c2ccc3c(c2)c(C(C)=O)nn3CC(=O)N2[C@H](C(=O)Nc3nc(Br)ccc3C)C[C@@]3(C)C[C@@H]23)cn1)C(=O)OC < 1000 nM

Incoming: Which measured IC50 value corresponds to CC(=O)c1nn(CC(=O)N2[C@H](C(=O)Nc3nc(Br)ccc3C)C[C@@]3(C)C[C@@H]23)c2c(-c3nn[nH]n3)cc(-c3cnc(C)nc3)cc12 ?
Outgoing: < 1000 nM

Incoming: IC50 lookup needed for CC(=O)c1nn(CC(=O)N2[C@H](C(=O)Nc3nc(Br)ccc3C)C[C@@]3(C)C[C@@H]23)c2cnc(-c3cnc(CNC(=O)COCCOCCNC(=O)COCCOCCNC(=O)CC[C@H](NC(=O)CCCCCCCCCCCCCCCCC(=O)O)C(=O)O)nc3)cc12 , thanks.
Outgoing: < 1000 nM

Incoming: Value lookup for IC50; key = CC(=O)c1nn(CC(=O)N2[C@H](C(=O)Nc3nc(Br)ccc3C)C[C@@]3(CN(C)C)C[C@@H]23)c2c(C3CC3)cc(-c3cnc(C)nc3)cc12
Outgoing: < 1000 nM

Incoming: What value of IC50 has been recorded for this entry: CC(=O)c1nn(CC(=O)N2[C@H](C(=O)NCCCCCCc3ccccc3)C[C@@]3(C)C[C@@H]23)c2c(C)cc(-c3cnc(C)nc3)cc12
Outgoing: 1000 to 10000 nM

Incoming: Can you share its IC50? I mean this compound: CCCCCCCCCCCCCCCC(=O)NCCCC[C@H](NC(=O)[C@H](CCC(=O)O)NC(=O)[C@H](Cc1ccc(O)cc1)NC(=O)[C@H](CCC(=O)O)NC(C)=O)C(=O)N[C@@H](CCC(=O)O)C(=O)N[C@@H](Cc1ccc(O)cc1)C(=O)N[C@@H](CCC(=O)O)C(=O)NCCOCCOCCOCCOCCOCCOCCOCCOCCOCCOCCOCCOCCOCCOCCOCCOCCOCCOCCOCCOCCOCCOCCOCCOCCC(=O)NC[C@@]12C[C@@H](C(=O)Nc3nc(Br)ccc3C)N(C(=O)Cn3nc(C(C)=O)c4cc(-c5cnc(C)nc5)cc(C)c43)[C@@H]1C2
Outgoing: 1000 to 10000 nM

---

Biological target: Human Factor D (Homo sapiens (Human))
Assay: Human Factor D Assay
Assay type: biochemical
Details: Factor D inhibition, assay of Example 10; read-out: IC5 (Stars)
Recorded IC50 for the following compounds

Incoming: Any idea what IC50 was measured for CC(=O)c1nn(CC(=O)N2[C@H](C(=O)Nc3nc(Br)c(F)cc3C)C[C@@]3(CN4C[C@H]5CCC[C@H]5C4)C[C@@H]23)c2cnc(-c3cnc(C)nc3)cc12 ?
Outgoing: < 1000 nM

Incoming: Given the entry CC(=O)c1nn(CC(=O)N2[C@H](C(=O)Nc3nc(Br)ccc3C)C[C@@]3(CNC(C)(C)C)C[C@@H]23)c2c(C)cc(-c3cnc(C)nc3)cc12 , report its measured IC50.
Outgoing: < 1000 nM

Incoming: IC50 for Cc1ncc(-c2ccc3c(cnn3CC(=O)N3C[C@H](F)C[C@H]3C(=O)Nc3cccc(Br)n3)c2)cn1 ?
Outgoing: 1000 to 10000 nM
